The following compounds are shown together with reported GI50 values.
test system: IGROV-1; assay: NCI tumour cell line growth inhibition, 48 h
Activity calls are given as the source filed them. Cut-off read from the data, not from the text of the source: active = GI50 up to about 1.1 µM and inactive = higher.
metric: GI50

compound | target | metric | val
CNC(=O)OC1/C(C)=C\C(C)C(O)C(OC)CC(C)CC2=C(OC)C(=O)C=C(C2=O)N(C)C(=O)/C(C)=C/C=C\C1OC (stereo not drawn) | IGROV-1 | GI50 | 10.8 µM (inactive)
CC(C)NC(=O)OCc1c(COC(=O)NC(C)C)c(-c2cc[n+](COC(=O)C3CCCCC3)cc2)n2c1CCC2 | IGROV-1 | GI50 | > 100 µM (inactive)
C=C(CO)[C@H]1CC/C(C)=C/CC/C(C)=C/C/C=C(\C)[C@H](O)C1 | IGROV-1 | GI50 | 17.8 µM (inactive)
COC(=O)c1ccccc1NC(=O)C(=O)CC(=O)c1ccccc1NC1=CC(=O)C(=O)c2ccccc21 | IGROV-1 | GI50 | 13.2 µM (inactive)
Cc1c(C)c(C)c(Cn2[nH]c(=O)n(C)c2=O)c(C)c1C | IGROV-1 | GI50 | > 100 µM (inactive)
COc1cc([C@@H]2C3C(=O)c4ccccc4C3[C@@H](c3cc(OC)c(OC)c(OC)c3)C23Cc2ccccc2C3=O)cc(OC)c1OC (stereo partly drawn) | IGROV-1 | GI50 | 24.3 µM (inactive)
Nc1ccn(C2OC(COP(=O)(O)OCC3OC(n4cc(F)c(=O)[nH]c4=O)CC3O)C(O)C2O)c(=O)n1 (stereo not drawn) | IGROV-1 | GI50 | > 34 µM (inactive)
O=C(O)C(Br)C(Br)c1ccccc1[N+](=O)[O-] (stereo not drawn) | IGROV-1 | GI50 | > 100 µM (inactive)
